Biological target: T1, human Mdm2 (1–125) (human)
T1 construct: Mdm2, human, residues 1-125; the stretch after the TEV site ENLYFQG of the fusion protein; No cleavage of the tags is described, so it is open whether the fusion or cleaved Mdm2 stood in the FP and ITC assays; also called purified recombinant human Mdm2 protein (amino acids 1–125); source: E. coli BL21 (DE3) Rosetta T1R, purified (Ni-NTA, gel filtration)
T1 sequence (chain, as listed by the source): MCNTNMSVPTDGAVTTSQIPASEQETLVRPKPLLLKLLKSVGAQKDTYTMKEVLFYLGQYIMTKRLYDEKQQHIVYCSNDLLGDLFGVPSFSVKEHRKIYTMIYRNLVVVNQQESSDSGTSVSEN
Test: fluorescence polarisation; competition: unlabeled peptide titrated against the complex of 250 nM Mdm2 (1–125) and 50 nM FAM-labeled 12/1 peptide; apparent Kd from the tracer's Kd of […] nM; PBS pH 7.4, 0.1% Tween 20; triplicate
Details: both partners purified
Bridge positions count the residues as written; N and C are the ends. Square brackets hold non-standard residues; d marks the D form. Primed or numbered codes have the meaning given here. R8 = C=CCCCCCC[C@@](C)(N)C(=O)O; S5 = C=CCCC[C@](C)(N)C(=O)O; Cba′ = not defined here; Aib = CC(C)(N)C(=O)O
recorded-metric: Kd (nM)
Supply the numeric figure in nM, leaving out any unit text.

Give its Kd value. Item: Ac-LTF[Aib][dE]YWQL[Cba′][Aib]SAA-NH2 (reading uncertain) [Linear E5(D-Glu)]
135

Give its Kd value. Item: Ac-LTF[R8]EYWAL[Cba′][S5]SAA-NH2 (staple 4-11; reading uncertain) [MP-292 Q8A]
26.5

Give its Kd value. Item: Ac-L[dT]F[R8]EYWQL[Cba′][S5]SAA-NH2 (staple 4-11; reading uncertain) [MP-292 T2(D-Thr)]
136

Reference source: paper PMC6632053
